Cited source for all entries: patent US20240173432A1

For each of the substances below, state its % of CUG foci free nuclei (DNA-PKi).
Test system: CUG foci in primary DM1 patient myoblasts
Assay: Single-cut screening: FISH staining of CUG RNA foci
Format: cell-based, human
Conditions: single sgRNA; primary DM1 patient myoblasts; DNA-PKi treated
Write the answer as a number in %, unit excluded.

// % of CUG foci free nuclei (DNA-PKi) (CUG foci in primary DM1 patient myoblasts) for ACAATAAATACCGAGGAATGTC (guide RNA; chemistry not fully specified) [SluD80] = 17.34

// % of CUG foci free nuclei (DNA-PKi) (CUG foci in primary DM1 patient myoblasts) for GCTCGGAGCGGTTGTGAACTGG (listed as DNA, chemistry not fully specified) [SluU21] = 54.83

// % of CUG foci free nuclei (DNA-PKi) (CUG foci in primary DM1 patient myoblasts) for ggcccctccctccccggccGCT (guide RNA; as printed in the source, key not given here) [SluU50] = 48.15

// % of CUG foci free nuclei (DNA-PKi) (CUG foci in primary DM1 patient myoblasts) for GGTCCTGTAGCCTGTCAGCGAG (guide RNA; chemistry not fully specified) [SluD69] = 27.98
